# Target Or System: human PDE10A full length (Homo sapiens)
The following compounds are shown together with reported pIC50 values.
Units for pIC50: none; it is -log10 of a concentration expressed in mol/L.

Read off the recorded pIC50 for "CN(C)c1nc2cc(NC(=O)c3c(C(=O)N4CCOCC4)cnn3C)ccn2n1" 7.36

Read off the recorded pIC50 for "Cn1ncc(C(=O)N2CC3(COC3)C2)c1C(=O)Nc1ccn2nc(N3CCOCC3)nc2c1" 7.24

Others:
Read off the recorded pIC50 for "CN(C)C(=O)c1cnn(C)c1C(=O)Nc1ccn2nc(N3CCOCC3)nc2c1" 8.15

Read off the recorded pIC50 for "CN1CCN(C(=O)c2cnn(C)c2C(=O)Nc2ccn3nc(-c4cccc(F)c4)nc3c2)CC1" 7.81

====

# Target Or System: human PDE10A full length (Homo sapiens, UniProt Q9Y233)
# Sequence (Q9Y233 1-779 isoform Q9Y233-1): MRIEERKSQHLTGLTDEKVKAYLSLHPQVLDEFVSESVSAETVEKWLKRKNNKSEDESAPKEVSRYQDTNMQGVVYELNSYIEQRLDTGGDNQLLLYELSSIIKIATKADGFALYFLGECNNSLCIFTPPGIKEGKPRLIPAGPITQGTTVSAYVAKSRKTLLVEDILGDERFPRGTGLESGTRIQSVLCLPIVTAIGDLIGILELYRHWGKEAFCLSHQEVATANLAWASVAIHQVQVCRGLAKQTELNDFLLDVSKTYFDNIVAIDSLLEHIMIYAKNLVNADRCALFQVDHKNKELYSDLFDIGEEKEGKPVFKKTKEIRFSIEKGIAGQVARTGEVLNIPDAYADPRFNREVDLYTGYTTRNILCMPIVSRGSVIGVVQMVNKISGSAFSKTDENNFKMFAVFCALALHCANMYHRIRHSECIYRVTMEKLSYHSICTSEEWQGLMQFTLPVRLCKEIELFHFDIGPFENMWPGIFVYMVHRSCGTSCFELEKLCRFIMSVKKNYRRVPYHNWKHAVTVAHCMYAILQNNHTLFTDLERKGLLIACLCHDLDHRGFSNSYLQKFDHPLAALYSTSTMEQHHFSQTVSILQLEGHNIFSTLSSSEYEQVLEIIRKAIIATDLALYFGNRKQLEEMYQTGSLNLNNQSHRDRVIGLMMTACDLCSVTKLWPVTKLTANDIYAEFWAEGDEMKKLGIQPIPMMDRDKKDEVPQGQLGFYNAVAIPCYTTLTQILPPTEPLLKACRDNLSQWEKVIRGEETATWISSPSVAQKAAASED
The following compounds are shown together with reported log10 IC50 values.
Plainly stated, the numbers are log10 of IC50 given in nM.

Give log10 IC50; test system human PDE10A full length (Homo sapiens, UniProt Q9Y233); compound CN(CC(F)(F)F)C(=O)c1cnn(C)c1C(=O)Nc1ccn2nc(-c3ccccc3)nc2c1 [Example 49] -0.08

Give log10 IC50; test system human PDE10A full length (Homo sapiens, UniProt Q9Y233); compound COCCN(C)C(=O)c1cnn(C)c1C(=O)Nc1ccn2nc(-c3cccc(OCF)c3)nc2c1 [Example 89] -0.23

Give log10 IC50; test system human PDE10A full length (Homo sapiens, UniProt Q9Y233); compound Cn1ncc(C(=O)N2CCC2)c1C(=O)Nc1ccn2nc(-c3cccnc3)nc2c1 [Example 44] 0.76

Give log10 IC50; test system human PDE10A full length (Homo sapiens, UniProt Q9Y233); compound COc1ccccc1-c1nc2cc(NC(=O)c3c(C(=O)N4CCOCC4)cnn3C)ccn2n1 [Example 69] -0.17

Give log10 IC50; test system human PDE10A full length (Homo sapiens, UniProt Q9Y233); compound COCCN(C)C(=O)c1cnn(C)c1C(=O)Nc1ccn2nc(-c3ccccc3)nc2c1 [Example 4] -0.55

Others:
Give log10 IC50; test system human PDE10A full length (Homo sapiens, UniProt Q9Y233); compound CCN(C)C(=O)c1cnn(C)c1C(=O)Nc1ccn2nc(-c3cccnc3)nc2c1 [Example 116] 0.05

Give log10 IC50; test system human PDE10A full length (Homo sapiens, UniProt Q9Y233); compound Cn1ncc(C(=O)N2CCOCC2)c1C(=O)Nc1ccn2nc(N3CCCC3)nc2c1 [Example 61] -0.03

Give log10 IC50; test system human PDE10A full length (Homo sapiens, UniProt Q9Y233); compound Cn1ncc(C(=O)N2CCC2)c1C(=O)Nc1ccn2nc(Br)nc2c1 [Example 65] 1.83

====

The following compounds are shown together with reported melting point values.
Numeric answer only, unit °C assumed.

Read off the recorded melting point for CN(C)C(=O)c1cnn(C)c1C(=O)Nc1ccn2nc(-c3cccc(F)n3)nc2c1 [Example 120] 264.4

Others:
Read off the recorded melting point for CCN(C)C(=O)c1cnn(C)c1C(=O)Nc1ccn2nc(N3CCCC3)nc2c1 [Example 124] 323.1

====

# human PDE10A full length (Homo sapiens): pIC50 values follow
Units for pIC50: none; it is -log10 of a concentration expressed in mol/L.

The examples below pair each entry with its known result.
Give pIC50; test system human PDE10A full length (Homo sapiens); compound CN(CCF)C(=O)c1cnn(C)c1C(=O)Nc1ccn2nc(-c3cccnc3)nc2c1 [Example 56] 8.43

Give pIC50; test system human PDE10A full length (Homo sapiens); compound COCCN(C)C(=O)c1cnn(C)c1C(=O)Nc1ccn2nc(-c3cccc(O)c3)nc2c1 [Example 87] 9.37

Others:
Give pIC50; test system human PDE10A full length (Homo sapiens); compound Cn1ncc(C(=O)N2CCC2)c1C(=O)Nc1ccn2nc(-c3ccccc3)nc2c1 [Example 3] 9.15

Give pIC50; test system human PDE10A full length (Homo sapiens); compound CN(CC(F)(F)F)C(=O)c1cnn(C)c1C(=O)Nc1ccn2nc(N3CCOCC3)nc2c1 [Example 54] 7.09
